Entries and their growth, % of control at 10 µM values follow.
test system: UACC-257; experiment: Growth of human UACC257 cells at 10 uM incubated for 48 hrs by sulforhodamine B assay relative to control; conditions: UACC-257, 48 h
Please format your answer as a value with the unit trailing.

- MOL_SMILES: "CC(C)(C)S/C(Nc1ccccc1)=C(\\C#N)C(=O)N/N=C\\c1ccco1"
  growth, % of control at 10 µM: "83%"
- MOL_SMILES: "CCS/C(Nc1ccccc1)=C(\\C#N)C(=O)Nc1ccc(C)cc1"
  growth, % of control at 10 µM: "99.3%"
- MOL_SMILES: "CCS/C(Nc1ccccc1)=C(\\C#N)C(=O)Nc1ccc(OC)cc1"
  growth, % of control at 10 µM: "58.4%"

# query: growth, % of control at 10 µM of entry CCS/C(Nc1ccccc1)=C(\C#N)C(=O)N/N=C\c1ccco1 84.4%

# query: growth, % of control at 10 µM of entry CCS/C(Nc1ccccc1)=C(\C#N)C(=O)N/N=C\c1ccc(Cl)cc1Cl 51.9%

# query: growth, % of control at 10 µM of entry CC(C)(C)S/C(Nc1ccccc1)=C(\C#N)C(=O)N/N=C\c1ccc(Cl)cc1Cl 92.5%

###

Entries and their growth, % of control at 10 µM values follow.
tested on: SK-MEL-28; experiment: Growth of human SK-MEL-28 cells at 10 uM incubated for 48 hrs by sulforhodamine B assay relative to control; details: SK-MEL-28, 48 h
Report the figure in % without appending any unit label.

- MOL_SMILES: "CCS/C(Nc1ccccc1)=C(\\C#N)C(=O)Nc1ccccc1"
  UNIT_ABBREV: "%"
  ASSAY_RESULT: 112
- MOL_SMILES: "CC(C)(C)S/C(Nc1ccccc1)=C(\\C#N)C(=O)N/N=C\\c1ccc(Cl)cc1Cl"
  UNIT_ABBREV: "%"
  ASSAY_RESULT: 108

Now consider the entry below.
I'm curious: which growth, % of control at 10 µM was measured for CCS/C(Nc1ccccc1)=C(\C#N)C(=O)N/N=C\c1ccc(Cl)cc1Cl tested on SK-MEL-28? 60.5

###

test system: RPMI-8226; test: Growth of human RPMI8226 cells at 10 uM incubated for 48 hrs by sulforhodamine B assay relative to control; conditions: RPMI-8226, 48 h
Entries and their growth, % of control at 10 µM values follow.
Report the figure in % without appending any unit label.

Example entries and their recorded answers appear below.
- MOL_SMILES: "CCS/C(Nc1ccccc1)=C(\\C#N)C(=O)Nc1ccccc1"
  EXPERIMENTAL_SYSTEM: "RPMI-8226"
  ASSAY_RESULT: 79.2
- MOL_SMILES: "CC(C)(C)S/C(Nc1ccccc1)=C(\\C#N)C(=O)N/N=C\\c1ccco1"
  EXPERIMENTAL_SYSTEM: "RPMI-8226"
  ASSAY_RESULT: 106
- MOL_SMILES: "CCS/C(Nc1ccccc1)=C(\\C#N)C(=O)N/N=C\\c1ccc(Cl)cc1Cl"
  EXPERIMENTAL_SYSTEM: "RPMI-8226"
  ASSAY_RESULT: 9.68

# query: growth, % of control at 10 µM of entry CC(C)(C)S/C(Nc1ccccc1)=C(\C#N)C(=O)Nc1ccccc1 95.3

# query: growth, % of control at 10 µM of entry CC(C)(C)S/C(Nc1ccccc1)=C(\C#N)C(=O)N/N=C\c1ccc(Cl)cc1Cl 98.7

###

system: OVCAR-5; test: Growth of human OVCAR5 cells at 10 uM incubated for 48 hrs by sulforhodamine B assay relative to control; settings: OVCAR-5, 48 h
Entries and their growth, % of control at 10 µM values follow.
Report the figure in % without appending any unit label.

- MOL_SMILES: "CCS/C(Nc1ccccc1)=C(\\C#N)C(=O)Nc1ccc(OC)cc1"
  growth, % of control at 10 µM / %: 63.1
- MOL_SMILES: "CCS/C(Nc1ccccc1)=C(\\C#N)C(=O)Nc1ccc(C)cc1"
  growth, % of control at 10 µM / %: 101

Now consider the entry below.
# query: growth, % of control at 10 µM of entry CCS/C(Nc1ccccc1)=C(\C#N)C(=O)N/N=C\c1ccc(Cl)cc1Cl 72.5
